Biological target: APOL1 G2 (Homo sapiens, UniProt O14791, DEL388-389)
Assay: Rescue of HEK293 cell death caused by overexpression of APOL1 (CellTiter-Glo luminescence), HEK293/T-REx APOL1 G2/clone #2
Details: reversal of cell death caused by overexpression of APOL1; geometric mean of at least 2 assay runs, † = single assay run (technical duplicate)
MEASURED PARAMETER: pEC50
Answer as the number alone; pEC50 is minus log10 of concentration in mol/L.

Worked examples follow.
{"COMPOUND": "CN(c1ccc(OC[C@@H](O)CN[C@H]2C[C@H](c3cccc(Cl)c3)C2)cc1)S(C)(=O)=O [Compound 65]", "MEASURED TARGET": "APOL1 G2 (Homo sapiens, UniProt O14791, DEL388-389)", "pEC50": 6.02}
{"COMPOUND": "CN(c1ccc(OCC2CCCN(CCc3cccc(Cl)c3)C2)cc1)S(C)(=O)=O (stereo not shown) [Compound 7]", "MEASURED TARGET": "APOL1 G2 (Homo sapiens, UniProt O14791, DEL388-389)", "pEC50": 6.49}
{"COMPOUND": "CS(=O)(=O)c1ccc(OCC2(O)CCCN(CCc3cccc(Cl)c3)C2)cc1 (single isomer, unassigned) [Compound 5]", "MEASURED TARGET": "APOL1 G2 (Homo sapiens, UniProt O14791, DEL388-389)", "pEC50": 5.27}

Input line: Specify pEC50 for CN(c1ccc(OC[C@H](O)CN2CCC(c3cccc(Cl)c3)C2(C)C)cc1)S(C)(=O)=O (stereo partly shown) [Compound 71] and stop.
Output line: 5.71

Input line: Could you please provide reported pEC50 for Cc1cc(C#N)cc(CCN2C[C@@H](COc3ccc(S(C)(=O)=O)cc3)[C@H](C)C2)c1 [Compound 198] ? Thanks!
Output line: 7.15

###

Listed here: items and their measured log10 AC50.
Target: APOL1 G2 (Homo sapiens, UniProt O14791, DEL388-389)
Construct: expressed in transfected cells; host or cells: HEK293 T-REx clonal lines: HEK T-REx/GCaMP6f/APOL1 G2 K6.3 in A1, HEK293/T-REx APOL1 G2/clone #2 in A2
Assay: APOL1 calcium transport inhibition assay (GCaMP6f calcium influx, FLIPR) in HEK T-REx/GCaMP6f/APOL1 G2 K6.3 cells
Type: cell-based
Conditions: inhibition of APOL1-mediated calcium influx; geometric mean of at least 2 assay runs, † = single assay run (technical duplicate)
All values: log10 AC50 [µM].

Input line: Answer with the recorded log10 AC50 for the compound listed here: C[C@@H]1C[C@H](COc2ccc(S(=O)(=O)CCCS(C)(=O)=O)cc2)CN1CCc1cc(Cl)cc(C#N)c1 [Compound 164]
Output line: -0.44

Input line: Consider the compound C[C@@]1(O)CN(CCc2cccc(Cl)c2)C[C@H]1COc1ccc(S(C)(=O)=O)cc1 (single isomer, unassigned) [Compound 207] and give its recorded log10 AC50.
Output line: -0.47

Input line: Provide only the value of recorded log10 AC50 for CN=S(C)(=O)c1ccc(OC[C@@H]2CN(CCc3cccc(C#N)c3)C[C@H]2C)cc1 (single isomer, unassigned) [Compound 170]
Output line: -1.43

Input line: Consider the compound C[C@@H]1CN(CCc2cccc(Cl)c2)C[C@H]1COc1ccc(N(C)S(C)(=O)=O)cc1 (single isomer, unassigned) [Compound 46] and give its recorded log10 AC50.
Output line: -1.04

Input line: Report log10 AC50, nothing else, for this compound: COC(CN1CCC[C@H](COc2ccc(S(C)(=O)=O)cc2)C1)c1cccc(Cl)c1 (single isomer, unassigned) [Compound 24]
Output line: -0.30

Input line: Please report log10 AC50 for the following compound: C[C@@H]1CN(CCc2cc(Cl)cc(C#N)c2)C[C@H]1COc1ccc(S(=O)(=O)CCCS(C)(=O)=O)cc1 [Compound 167]
Output line: -0.50

###

Biological target: APOL1 G2 (Homo sapiens, UniProt O14791, DEL388-389)
Assay: Rescue of HEK293 cell death caused by overexpression of APOL1 (CellTiter-Glo luminescence), HEK293/T-REx APOL1 G2/clone #2
Details: reversal of cell death caused by overexpression of APOL1; geometric mean of at least 2 assay runs, † = single assay run (technical duplicate)
pEC50: −log10 of the molar value.
Returns met if the recorded pEC50 is greater than or equal to 6, and not met otherwise.

{"MOLECULE": "C[C@@H]1C[C@H](COc2ccc(S(C)(=O)=O)cc2)CN1CC(O)c1cccc(Cl)c1 (single isomer, unassigned) [Compound 215]", "LABEL": "met"}
{"MOLECULE": "CC1CC(COc2ccc(S(C)(=O)=O)cc2)CN1CCc1cc(Cl)cc(C#N)c1 (single isomer, unassigned) [Compound 203]", "LABEL": "not met"}

Input line: Would you say COC1CCN(CCc2cccc(Cl)c2)CC1COc1ccc(S(C)(=O)=O)cc1 (single isomer, unassigned) [Compound 38] shows pEC50 at minimum 6?
Output line: met

Input line: Evaluate C[C@@H]1CN(CC(O)c2cccc(Cl)c2)C[C@H]1COc1ccc(S(C)(=O)=O)cc1 (single isomer, unassigned) [Compound 124] : pEC50 at minimum 6?
Output line: met

###

log10(AC50) overview
Target: APOL1 G2 (Homo sapiens, UniProt O14791, DEL388-389)
Construct: expressed in transfected cells; host or cells: HEK293 T-REx clonal lines: HEK T-REx/GCaMP6f/APOL1 G2 K6.3 in A1, HEK293/T-REx APOL1 G2/clone #2 in A2
Sequence (O14791 with tags, fused parts or gaps DEL388-389): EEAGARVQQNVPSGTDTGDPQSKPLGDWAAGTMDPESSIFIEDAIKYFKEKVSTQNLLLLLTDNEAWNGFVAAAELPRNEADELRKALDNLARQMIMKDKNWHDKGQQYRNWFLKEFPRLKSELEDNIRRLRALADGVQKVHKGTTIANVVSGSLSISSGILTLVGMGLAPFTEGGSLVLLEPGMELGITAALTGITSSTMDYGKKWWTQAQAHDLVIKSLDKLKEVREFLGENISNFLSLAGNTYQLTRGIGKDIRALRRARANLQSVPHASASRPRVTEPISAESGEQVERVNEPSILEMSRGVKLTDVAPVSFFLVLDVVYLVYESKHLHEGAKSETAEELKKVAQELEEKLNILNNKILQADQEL
Test: APOL1 calcium transport inhibition assay (GCaMP6f calcium influx, FLIPR) in HEK T-REx/GCaMP6f/APOL1 G2 K6.3 cells
Format: cell-based
Conditions: inhibition of APOL1-mediated calcium influx; geometric mean of at least 2 assay runs, † = single assay run (technical duplicate)
Recall that a logarithmic scale is used here: each number is log10 of AC50 in µM.

Sample answers from the record:
{"COMPOUND": "CN=S(C)(=O)c1ccc(OC[C@H]2C[C@@H](C)N(CCc3cccc(C#N)c3)C2)cc1 (single isomer, unassigned) [Compound 158]", "log10(AC50)": -0.45}
{"COMPOUND": "CC(C)(Cc1cccc(Cl)c1)NC[C@@H](O)COc1ccc(S(C)(=O)=O)cc1", "log10(AC50)": -0.50}
{"COMPOUND": "C[C@@H]1C[C@H](COc2ccc(S(C)(=O)=O)cc2)CN1CC(O)c1cc(Cl)cc(C#N)c1 (single isomer, unassigned) [Compound 114]", "log10(AC50)": -0.15}
{"COMPOUND": "C[C@@H]1CN(CCc2cc(Cl)cc(C#N)c2)C[C@H]1COc1ccc(S(C)(=O)=O)cc1", "log10(AC50)": -0.82}
{"COMPOUND": "CS(=O)(=O)c1ccc(OC[C@@H]2CN(CCc3cc(Cl)ccc3OC(F)F)CCN2)cc1", "log10(AC50)": -0.59}
{"COMPOUND": "COC(CN1CCC[C@@H](COc2ccc(S(C)(=O)=O)cc2)C1)c1cccc(Cl)c1 (single isomer, unassigned) [Compound 26]", "log10(AC50)": 0.19}

Input line: Note down log10(AC50) recorded for C[C@@H]1CN(CC(O)c2cccc(Cl)c2)C[C@H]1COc1ccc(S(C)(=O)=O)cc1 (stereo partly drawn) [Compound 123]
Output line: -0.42

Input line: Specify measured log10(AC50) for CS(=O)(=O)c1ccc(OC[C@@H](O)CN2CCCCC2Cc2cccc(Cl)c2)cc1 (single isomer, unassigned) [Compound 64] .
Output line: -0.24

Input line: Tell us which log10(AC50) value is on record for CS(=O)(=O)c1ccc(OC[C@@H]2CCCN(CC(O)c3cccc(Cl)c3)C2)cc1 (single isomer, unassigned) [Compound 22]
Output line: 0.81

Input line: Could you please provide reported log10(AC50) for CS(=O)(=O)c1ccc(OC[C@H]2CCCN(CCc3cccc(Cl)c3)C2)cc1 ? Thanks!
Output line: -0.64

Input line: Indicate the recorded log10(AC50) value for this compound: C[C@@H]1CN(CC(O)c2cccc(Cl)c2)C[C@H]1COc1ccc(S(C)(=O)=O)cc1 (single isomer, unassigned) [Compound 124]
Output line: -0.83

Input line: Please report the measured log10(AC50) for CC1CC(COc2ccc(S(C)(=O)=O)cc2)CN1CCc1cccc(Cl)c1 (single isomer, unassigned) [Compound 55]
Output line: 0.11

Input line: Identify the reported log10(AC50) for the following entry. C[C@H]1CC[C@H](COc2ccc(S(C)(=O)=O)cc2)CN1CCc1cccc(Cl)c1
Output line: -0.56

Input line: Provide only the value of recorded log10(AC50) for CN(c1ccc(OC[C@@H](O)CN2CCC(c3cccc(Cl)c3)C2(C)C)cc1)S(C)(=O)=O (single isomer, unassigned) [Compound 69]
Output line: 1.11
